# viability, T/C per record follows
System: 931267-113-T-J1-PDC KRAS spheroid with HUVEC/MSC, viability
Test: Anticancer human tumor 931267-113-T-J1-PDC patient-derived colon adenocarcinoma cell line growth inhibition [KRAS2]
Settings: compound 3.16 µM; stronger effect = lower value
Assay readout: viability, T/C

COC(=O)c1ccc2c(C(=Nc3ccc(N(C)C(=O)CN4CCN(C)CC4)cc3)c3ccccc3)c(O)[nH]c2c1 : 0.6% [middle of 4 runs]
COc1cc2nccc(Oc3ccc(NC(=O)C4(C(=O)Nc5ccc(F)cc5)CC4)cc3)c2cc1OC : 60.4% [middle of 5 runs]
CC1(C)CCC(CN2CCN(c3ccc(C(=O)NS(=O)(=O)c4ccc(NCC5CCOCC5)c([N+](=O)[O-])c4)c(Oc4cnc5[nH]ccc5c4)c3)CC2)=C(c2ccc(Cl)cc2)C1 : 33.6% [middle of 5 runs]
CC1COCCN1c1cc(-c2ccnn2C)c2ccnc(-c3ccn[nH]3)c2n1 (centres undefined) : 20.6% [middle of 5 runs]
CCNC(=O)CC1N=C(c2ccc(Cl)cc2)c2cc(OC)ccc2-n2c(C)nnc21 (centres undefined) : 47.1% [middle of 5 runs]
CC(C)NCC(C(=O)N1CCN(c2ncnc3c2C(C)CC3O)CC1)c1ccc(Cl)cc1 (centres undefined) : 65.2% [middle of 5 runs]
O=C(c1cc(Cc2n[nH]c(=O)c3ccccc23)ccc1F)N1CCN(C(=O)C2CC2)CC1 : 88.3% [middle of 5 runs]
Cn1nccc1Nc1nccc(-c2cc3c(s2)C(C)(C)N(CCN2CCOCC2)C3=O)n1 : 7.98% [middle of 5 runs]
COc1cc(Nc2ncc3c(n2)-c2ccc(Cl)cc2C(c2c(F)cccc2OC)=NC3)ccc1C(=O)O : 85.9% [middle of 5 runs]

* * *

# viability, T/C per entry
Test system: 931267-113-T-J1-PDC KRAS spheroid with HUVEC/MSC, viability
Assay: Anticancer human tumor 931267-113-T-J1-PDC cell line growth inhibition [KRAS2];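 further: compound exposure lasted 7 days before the readout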;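 on viability, T/C: 100% = DMSO vehicle control viability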
Conditions: second compound 3.16 µM; first compound 0.0316 µM; stronger effect = lower value
Assay readout: viability, T/C

Cn1ncnc1[C@H]1c2n[nH]c(=O)c3cc(F)cc(c23)N[C@@H]1c1ccc(F)cc1 + CNCc1ccccc1-c1csc(C(C)Nc2nc(C)nc3cc(OC)c(OC)cc23)c1 : 0.1%
COc1cc2nccc(Oc3ccc(NC(=O)C4(C(=O)Nc5ccc(F)cc5)CC4)cc3)c2cc1OC + C=CC(=O)N1CCN(c2nc(OCC3CCCN3C)nc3c2CCN(c2cccc4cccc(C)c24)C3)CC1CC#N : 16.2%
Cn1ncnc1[C@H]1c2n[nH]c(=O)c3cc(F)cc(c23)N[C@@H]1c1ccc(F)cc1 + CC1OCC2(CCN(c3cnc(Sc4ccnc(N)c4Cl)c(N)n3)CC2)C1N : 91.4%
CN(C)C/C=C/C(=O)Nc1cc2c(Nc3ccc(F)c(Cl)c3)ncnc2cc1O[C@H]1CCOC1 + C=CC(=O)N1CCN(c2nc(OCC3CCCN3C)nc3c2CCN(c2cccc4cccc(C)c24)C3)CC1CC#N : 0.21%
COc1cc(Nc2ncc3c(n2)-c2ccc(Cl)cc2C(c2c(F)cccc2OC)=NC3)ccc1C(=O)O + CC1OCC2(CCN(c3cnc(Sc4ccnc(N)c4Cl)c(N)n3)CC2)C1N : 53.4%

* * *

Test system: 931267-113-T-J1-PDC KRAS spheroid with HUVEC/MSC, viability
Experiment: Anticancer human tumor 931267-113-T-J1-PDC cell line growth inhibition [KRAS2];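 further: compound exposure lasted 7 days before the readout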;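 on viability, T/C: 100% = DMSO vehicle control viability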
Conditions: second compound 3.16 µM; first compound 0.0316 µM; stronger effect = lower value
Each record here notes measured viability, T/C.
Assay readout: viability, T/C (%)

CCNC(=O)CC1N=C(c2ccc(Cl)cc2)c2cc(OC)ccc2-n2c(C)nnc21 (stereo not drawn) + COc1cc2nc(C)nc(NC(C)c3cc(N)cc(C(F)(F)F)c3)c2cc1OC1CCOC1 : 59.5
O=C(c1cc(Cc2n[nH]c(=O)c3ccccc23)ccc1F)N1CCN(C(=O)C2CC2)CC1 + C=CC(=O)N1CCN(c2nc(=O)n(-c3c(C)ccnc3C(C)C)c3nc(-c4c(O)cccc4F)c(F)cc23)C(C)C1 : 105
CC(=O)Nc1cccc(-n2c(=O)n(C3CC3)c(=O)c3c(Nc4ccc(I)cc4F)n(C)c(=O)c(C)c32)c1 + C=CC(=O)N1CCN(c2nc(=O)n(-c3c(C)ccnc3C(C)C)c3nc(-c4c(O)cccc4F)c(F)cc23)C(C)C1 : 19.6

* * *

Test system: 931267-113-T-J1-PDC KRAS spheroid with HUVEC/MSC, viability
Test: Anticancer human tumor 931267-113-T-J1-PDC cell line growth inhibition [KRAS2];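 further: compound exposure lasted 7 days before the readout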;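 on viability, T/C: 100% = DMSO vehicle control viability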
Details: second compound 1 µM; first compound 0.316 µM; stronger effect = lower value
We begin with a simple list: items and their reported viability, T/C.
Assay readout: viability, T/C (%)

CC(=O)OC12COC1CC(O)C1(C)C(=O)C(O)C3=C(C)C(OC(=O)C(O)C(NC(=O)OC(C)(C)C)c4ccccc4)CC(O)(C(OC(=O)c4ccccc4)C21)C3(C)C (configuration not stated) + C=CC(=O)N1CCN(c2nc(=O)n(-c3c(C)ccnc3C(C)C)c3nc(-c4c(O)cccc4F)c(F)cc23)C(C)C1 : 81
CCNC(=O)CC1N=C(c2ccc(Cl)cc2)c2cc(OC)ccc2-n2c(C)nnc21 (configuration not stated) + COc1cc2nc(C)nc(NC(C)c3cc(N)cc(C(F)(F)F)c3)c2cc1OC1CCOC1 : 59.1

* * *

Test system: 931267-113-T-J1-PDC KRAS spheroid with HUVEC/MSC, viability
Assay: Anticancer human tumor 931267-113-T-J1-PDC cell line growth inhibition [KRAS2];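 further: compound exposure lasted 7 days before the readout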;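 on viability, T/C: 100% = DMSO vehicle control viability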
Conditions: second compound 0.1 µM; first compound 0.01 µM; stronger effect = lower value
Assay readout: viability, T/C (%)

CC(=O)OC12COC1CC(O)C1(C)C(=O)C(O)C3=C(C)C(OC(=O)C(O)C(NC(=O)OC(C)(C)C)c4ccccc4)CC(O)(C(OC(=O)c4ccccc4)C21)C3(C)C (stereo not given) + C=CC(=O)N1CCN(c2nc(OCC3CCCN3C)nc3c2CCN(c2cccc4cccc(C)c24)C3)CC1CC#N : 106
CC1COCCN1c1cc(-c2ccnn2C)c2ccnc(-c3ccn[nH]3)c2n1 (stereo not given) + CNCc1ccccc1-c1csc(C(C)Nc2nc(C)nc3cc(OC)c(OC)cc23)c1 : 87.4
CC1COCCN1c1cc(-c2ccnn2C)c2ccnc(-c3ccn[nH]3)c2n1 (stereo not given) + C=CC(=O)N1CCN(c2nc(=O)n(-c3c(C)ccnc3C(C)C)c3nc(-c4c(O)cccc4F)c(F)cc23)C(C)C1 : 95.5
Cn1ncnc1[C@H]1c2n[nH]c(=O)c3cc(F)cc(c23)N[C@@H]1c1ccc(F)cc1 + C=CC(=O)N1CCN(c2nc(=O)n(-c3c(C)ccnc3C(C)C)c3nc(-c4c(O)cccc4F)c(F)cc23)C(C)C1 : 92.3
CN(C)C/C=C/C(=O)Nc1cc2c(Nc3ccc(F)c(Cl)c3)ncnc2cc1O[C@H]1CCOC1 + COc1cc2nc(C)nc(NC(C)c3cc(N)cc(C(F)(F)F)c3)c2cc1OC1CCOC1 : 87.5

* * *

Test system: 931267-113-T-J1-PDC KRAS spheroid with HUVEC/MSC, viability
Assay: Anticancer human tumor 931267-113-T-J1-PDC cell line growth inhibition [KRAS2];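 further: compound exposure lasted 7 days before the readout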
Conditions: curve of first compound; second compound 1 µM
pIC50: −log10 of the molar value.
I would appreciate it if you labelled entries 1.0 when pIC50 is 6 or higher, otherwise 0.0.

COc1cc(Nc2ncc3c(n2)-c2ccc(Cl)cc2C(c2c(F)cccc2OC)=NC3)ccc1C(=O)O + C=CC(=O)N1CCN(c2nc(OCC3CCCN3C)nc3c2CCN(c2cccc4cccc(C)c24)C3)CC1CC#N : 0.0
CC(C)NCC(C(=O)N1CCN(c2ncnc3c2C(C)CC3O)CC1)c1ccc(Cl)cc1 (stereo not given) + CNCc1ccccc1-c1csc(C(C)Nc2nc(C)nc3cc(OC)c(OC)cc23)c1 : 1.0
Cn1nccc1Nc1nccc(-c2cc3c(s2)C(C)(C)N(CCN2CCOCC2)C3=O)n1 + COc1cc2nc(C)nc(NC(C)c3cc(N)cc(C(F)(F)F)c3)c2cc1OC1CCOC1 : 1.0
COC(=O)c1ccc2c(C(=Nc3ccc(N(C)C(=O)CN4CCN(C)CC4)cc3)c3ccccc3)c(O)[nH]c2c1 + C=CC(=O)N1CCN(c2nc(OCC3CCCN3C)nc3c2CCN(c2cccc4cccc(C)c24)C3)CC1CC#N : 1.0
CC(=O)OC12COC1CC(O)C1(C)C(=O)C(O)C3=C(C)C(OC(=O)C(O)C(NC(=O)OC(C)(C)C)c4ccccc4)CC(O)(C(OC(=O)c4ccccc4)C21)C3(C)C (stereo not given) + CNCc1ccccc1-c1csc(C(C)Nc2nc(C)nc3cc(OC)c(OC)cc23)c1 : 0.0
CC(=O)OC12COC1CC(O)C1(C)C(=O)C(O)C3=C(C)C(OC(=O)C(O)C(NC(=O)OC(C)(C)C)c4ccccc4)CC(O)(C(OC(=O)c4ccccc4)C21)C3(C)C (stereo not given) + C=CC(=O)N1CCN(c2nc(=O)n(-c3c(C)ccnc3C(C)C)c3nc(-c4c(O)cccc4F)c(F)cc23)C(C)C1 : 0.0
O=C(c1cc(Cc2n[nH]c(=O)c3ccccc23)ccc1F)N1CCN(C(=O)C2CC2)CC1 + C=CC(=O)N1CCN(c2nc(OCC3CCCN3C)nc3c2CCN(c2cccc4cccc(C)c24)C3)CC1CC#N : 0.0
CC(C)NCC(C(=O)N1CCN(c2ncnc3c2C(C)CC3O)CC1)c1ccc(Cl)cc1 (stereo not given) + COc1cc2nc(C)nc(NC(C)c3cc(N)cc(C(F)(F)F)c3)c2cc1OC1CCOC1 : 0.0
O=C(c1cc(Cc2n[nH]c(=O)c3ccccc23)ccc1F)N1CCN(C(=O)C2CC2)CC1 + CNCc1ccccc1-c1csc(C(C)Nc2nc(C)nc3cc(OC)c(OC)cc23)c1 : 0.0

// data source = PubChem BioAssay AID1963863
